Where these numbers come from: patent US6500841B1

Molecular target: Farnesyl-protein transferase (FTase) (UniProt P49354+P49356)
Assay: In vitro inhibition of Ras farnesyl transferase
Assay type: biochemical
Settings: Ras-CVLS at 3.5 μM, 0.25 μM [3H]FPP; partially purified bovine or recombinant human enzyme; concentration giving 50% inhibition of FTase; read-out: Inhibition of RAS farnesylation, IC50
Would you kindly list log10(IC50) for each of these compounds?
Please be aware that the numbers have been log10-transformed from IC50 in nM.

CCC(C)C(CN1CCCC1C(=O)NC(CCS(C)(=O)=O)C(=O)OC)N(C)CC(N)CS (stereo not shown) on Farnesyl-protein transferase (FTase) (UniProt P49354+P49356) gives log10(IC50) = 4.00

"CC[C@H](C)[C@@H](CN1CCC[C@H]1C(=O)N[C@@H](CCS(C)(=O)=O)C(=O)OC)NC[C@@H](N)CS" on Farnesyl-protein transferase (FTase) (UniProt P49354+P49356) gives log10(IC50) = 2.98

"CC[C@H]1CCN(C[C@@H](NC[C@@H](N)CS)[C@@H](C)CC)[C@@H]1C(=O)N[C@@H](CCSC)C(=O)OC" on Farnesyl-protein transferase (FTase) (UniProt P49354+P49356) gives log10(IC50) = 2.72

CCC(C)C(CN1CCCCC1C(=O)NC1CCOC1=O)NCC(N)CS (stereo not shown) on Farnesyl-protein transferase (FTase) (UniProt P49354+P49356) gives log10(IC50) = 4.38

CCC(C)[C@@H](CN1Cc2ccccc2C[C@H]1C(=O)N[C@H]1CCOC1=O)NC[C@@H](N)CS (stereo partly shown) on Farnesyl-protein transferase (FTase) (UniProt P49354+P49356) gives log10(IC50) = 2.59

CCC(C)C(NCC(N)CS)C(=O)N1CCCC1C(=O)NC(CCO)C(=O)O (stereo not shown) on Farnesyl-protein transferase (FTase) (UniProt P49354+P49356) gives log10(IC50) = 2.54

"CC[C@H]1CCN(C[C@@H](NC[C@@H](N)CS)[C@@H](C)CC)[C@@H]1C(=O)N[C@@H](CCSC)C(=O)O" on Farnesyl-protein transferase (FTase) (UniProt P49354+P49356) gives log10(IC50) = 1.00
